The entries below come with measured SPOT peptide array binding signal intensity values attached.
# target_of_assay: ScBbc1
# assay_explanation: SPOT peptide array binding signal intensity (averaged, normalized) (arbitrary units (background-subtracted, floor 0; scale differs between SH3 domains)); higher = stronger binding of the SH3 domain to the peptide
The response must contain the number and no unit.

Use the examples below as a reference point.
[
  {
    "binder": "MTKTPETSPPKRPMG",
    "assay_value": 0.5
  },
  {
    "binder": "FTLPPPPPPPGLDEL",
    "assay_value": 2
  },
  {
    "binder": "DAPASKPSVPPRNYF",
    "assay_value": 5.5
  },
  {
    "binder": "TKIRRRPQQPLTDFT",
    "assay_value": 63.5
  },
  {
    "binder": "RLPAPPPPPRRGPAP",
    "assay_value": 198
  }
]

Requested field: SPOT peptide array binding signal intensity. Item: RPVPRRPSQPLNTLS
514

Another binder to look at: AIPPPVPNRPGGTTN
515

Another binder to look at: QPQRTAPKPPISAPR
268

Another binder to look at: NGRRRPKFRVQLSGN
28.8

Another binder to look at: MAMRPIPPLPTESEY
2

Another binder to look at: RPKRRAPPPVPKKPS
835

Another binder to look at: EREKALPPIPFTTTL
1

Another binder to look at: LLGRKRPVMERVVDI
5.5

Another binder to look at: ALRRRLPVTRSKINW
45.5
